# reported viability; entries follow
- Test system: primary AML patient cells (S091)
- test.method.notes: viability relative to DMSO control (fraction); higher = less drug effect (more viable cells)
- study.conditions: 1 µM; 48 h

{"structure.string": "O=C1c2c(O)ccc(O)c2C(=O)c2c(NCCNCCO)ccc(NCCNCCO)c21", "viability": 0.118}
{"structure.string": "CC(C)C[C@H](NC(=O)CNC(=O)c1cc(Cl)ccc1Cl)B(O)O", "viability": 0.811}
{"structure.string": "Nc1ccc2ncnc(NCCc3ccc(Oc4ccccc4)cc3)c2c1", "viability": 0.624}
{"structure.string": "Cc1nc(Nc2ncc(C(=O)Nc3c(C)cccc3Cl)s2)cc(N2CCN(CCO)CC2)n1", "viability": 1.29}
{"structure.string": "COc1cccc2c1C(=O)c1c(O)c3c(c(O)c1C2=O)C[C@@](O)(C(C)=O)C[C@@H]3O[C@H]1C[C@H](N)[C@H](O)[C@H](C)O1", "viability": 0.0819}

---

- System: primary BL patient cells (S005)
- test.method.notes: viability relative to DMSO control (fraction); higher = less drug effect (more viable cells)
- study.conditions: 15 µM; 48 h

{"structure.string": "CCc1nc(C(N)=O)c(Nc2ccc(N3CCC(N4CCN(C)CC4)CC3)c(OC)c2)nc1NC1CCOCC1", "viability": 0.536}
{"structure.string": "N#CC[C@H](C1CCCC1)n1cc(-c2ncnc3[nH]ccc23)cn1", "viability": 1.03}
{"structure.string": "O=C(c1cc(Cc2n[nH]c(=O)c3ccccc23)ccc1F)N1CCN(C(=O)C2CC2)CC1", "viability": 0.878}
{"structure.string": "Nc1ncn([C@H]2C[C@H](O)[C@@H](CO)O2)c(=O)n1", "viability": 0.8}

---

# reported viability; entries follow
- Tested on: primary CLL patient cells (S043)
- test.method.notes: viability relative to DMSO control (fraction); higher = less drug effect (more viable cells)
- study.conditions: 0.04 µM; 48 h

{"structure.string": "CCc1cnn2c(NCc3ccc[n+]([O-])c3)cc(N3CCCC[C@H]3CCO)nc12", "measured.target": "primary CLL patient cells (S043)", "viability": 0.0345}
{"structure.string": "Cc1nc(Nc2ncc(C(=O)Nc3c(C)cccc3Cl)s2)cc(N2CCN(CCO)CC2)n1", "measured.target": "primary CLL patient cells (S043)", "viability": 0.67}
{"structure.string": "Nc1ccc2ncnc(NCCc3ccc(Oc4ccccc4)cc3)c2c1", "measured.target": "primary CLL patient cells (S043)", "viability": 0.794}
{"structure.string": "COc1cccc2c1C(=O)c1c(O)c3c(c(O)c1C2=O)C[C@@](O)(C(C)=O)C[C@@H]3O[C@H]1C[C@H](N)[C@H](O)[C@H](C)O1", "measured.target": "primary CLL patient cells (S043)", "viability": 0.834}
{"structure.string": "C/C=C1\\NC(=O)[C@H]2CSSCC/C=C/[C@H](CC(=O)N[C@H](C(C)C)C(=O)N2)OC(=O)[C@H](C(C)C)NC1=O", "measured.target": "primary CLL patient cells (S043)", "viability": 0.0933}

---

# reported viability; entries follow
- System: primary AML patient cells (S085)
- test.method.notes: viability relative to DMSO control (fraction); higher = less drug effect (more viable cells)
- study.conditions: 0.024 µM; 48 h

{"structure.string": "O=C(c1cc(Cc2n[nH]c(=O)c3ccccc23)ccc1F)N1CCN(C(=O)C2CC2)CC1", "viability": 0.861}
{"structure.string": "Nc1nc(Cl)nc2c1ncn2[C@@H]1O[C@H](CO)[C@@H](O)[C@@H]1F", "viability": 0.897}
{"structure.string": "Nc1nc(=S)c2[nH]cnc2[nH]1", "viability": 1.03}
{"structure.string": "N#Cc1ccnc(N2C(=O)CC[C@H]2C(=O)N(c2cncc(F)c2)[C@H](C(=O)NC2CC(F)(F)C2)c2ccccc2Cl)c1", "viability": 1.07}
